Assay Info: Primary fluorescence-based thiol-reactive (MSTI) qHTS assay for identification of artifact compounds. (AID 1845221); further: nearly all actives have a fitted effect of over 65% in size; further: potency means the concentration at half of the fitted maximal effect
Experimental Conditions: MSTI thiol-reactivity probe, 1 h; series mostly up to 53.8 µM
Results filed as inconclusive are left out. Active and inactive are the calls of the source. The call rests on the fitted dose curve; in most records, active means well fitted inhibition curve with a large enough effect; inconclusive means small, poorly fitted or top-dose-only effect; inactive means no such curve, though single readings can be large or run the other way.
Readout Kind: Potency

// solved cases for Potency follow
COC(=O)C1=COC(O[C@@H]2O[C@H](COC(=O)/C=C/c3ccc(O)cc3)[C@@H](O)[C@H](O)[C@H]2O)C2C(CO)=CCC12 (stereo partly drawn)
inactive
Cc1cc(C(=O)N2Cc3cnn(C)c3Nc3ccccc32)ccc1CNC(=O)N1CCN(Cc2cc(O)cc(O)c2)CC1
inactive
C=C1C(O)CCC2(C)CC3(OC)OC(=O)C(C)=C3CC12 (stereo not drawn)
inactive
CC(C/C=C/C(C)(C)O)C1CCC(C)(O)C(O)C1 (stereo not drawn)
inactive
OCC1OC(Oc2cc(O)cc(/C=C/c3ccc(OC4OC(CO)C(O)C(O)C4O)cc3O)c2)C(O)C(O)C1O (stereo not drawn)
inactive
CC1CC(O)/C=C/C(O)/C=C\C(=O)O1 (stereo not drawn)
inactive
C/C(=C\CCC(C)CCO)C(=O)OC[C@H]1O[C@@H](O[C@@H]2OC=C(C(=O)O)[C@H]3CC[C@](C)(O)[C@@H]23)C(O)[C@@H](O)C1O (stereo partly drawn)
2.32 µM (active)

Next:
Which measured Potency value corresponds to CC1(C)CC[C@]2(C(=O)O)CC[C@]3(C)C(=CCC4[C@@]5(C)C[C@@H](O)[C@H](O)[C@@](C)(CO)C5[C@H](O)C[C@]43C)[C@@H]2C1 (stereo partly drawn) ?
inactive

###

System: CASKI
Assay Info: Primary qHTS to identify gynecologic anti-cancer compounds using libraries of approved drugs and bioactive compounds (AID 1345084); further: on the % scale 0 is the no-effect control and ±100 the full control effect; nearly all actives have a fitted effect of over 55% in size
Experimental Conditions: Gynecologic cancer cell panel viability, ATPlite luminescence, 48 h; series mostly up to 57.5 µM
Records with an inconclusive call do not appear. Calls of active or inactive are those of the source. Calls come from the whole dose curve; as a rule, active = well fitted cell-killing curve with a large enough effect; inconclusive = small, poorly fitted or top-dose-only effect, or effect the other way; inactive = flat fitted curve, though single readings scatter.
Readout Kind: activity change, negative = cytotoxicity

// solved cases for activity change, negative = cytotoxicity follow
CC1(C)CCC[C@@]2(C)[C@H]1[C@H](O)C=C(CO)[C@]2(O)CO
inactive
C/C=C(/C)C(=O)OC1CC(C)(C)CC2C3=CCC4C5(C)CCC(OC6OC(C)C(OC7OC(C(=O)O)C(O)C(OC8OC(CO)C(O)C(O)C8OC8OC(CO)C(O)C(O)C8O)C7O)C(O)C6O)C(C)(C)C5CCC4(C)C3(C)C(OC(=O)/C=C/C=C/C=C/CCC)C(OC(C)=O)C12CO (configuration not stated)
-6.51% [at 6.55 µM] (inactive)
CC1(C(=O)O)CC[C@]2(C(=O)OC3OC(CO)C(O)C(O)C3O)CC[C@]3(C)C(=CCC4[C@@]5(C)CC[C@H](OC6OCC(O)C(O)C6OC6OC(CO)C(O)C(O)C6O)C(C)(C)C5CC[C@]43C)C2C1 (some centres not stated)
-6.1% [at 11.6 µM] (inactive)
COC(=O)[C@]1(C)CCC[C@@]2(C)[C@@H]3CC[C@@H]4C[C@@]3(CC[C@@H]21)C[C@H]4C(=O)O
inactive

Which measured activity change, negative = cytotoxicity value corresponds to `O=C(Nc1cc(-c2ccccc2)nn1-c1ccccc1)c1ccc([N+](=O)[O-])cc1` ?
inactive

Which measured activity change, negative = cytotoxicity value corresponds to CC1(C)CCC2(C(=O)O)CCC3(C)C(=CCC4C5(C)CCC(O)C(C)(CO)C5C(O)CC43C)C2C1 (configuration not stated) ?
inactive

Which measured activity change, negative = cytotoxicity value corresponds to `CC1=C[C@H](O)[C@H]2C(C)(C)CCC[C@]2(C)[C@@]1(O)CO` ?
inactive
